Below, each entry is listed alongside its reported Ki.
Target Desc: Adenosine A2 receptor (Rattus norvegicus, UniProt P29276+P30543)
Assay Procedure: Inhibition of [3H]NECA binding to Adenosine A2 receptor in rat brain striatum
Format: tissue-based

- Line Notation: "CCCOC1=Nc2c(cnn2-c2ccccc2)C2=N[C@@H](Cc3ccccc3)CN12"
  Sign: "="
  Ki [µM]: 3.3
- Line Notation: "CCCOC1=Nc2c(cnn2-c2ccccc2)C2=N[C@H](Cc3ccccc3)CN12"
  Sign: ">"
  Ki [µM]: 100
- Line Notation: "CCCOc1nc(N[C@H](CO)Cc2ccccc2)c2ncn(-c3ccccc3)c2n1"
  Sign: "="
  Ki [µM]: 5.6
- Line Notation: "CCCOc1nc(N[C@@H](CO)Cc2ccccc2)c2ncn(-c3ccccc3)c2n1"
  Sign: "="
  Ki [µM]: 30
- Line Notation: "CCCOc1nc(N[C@H](C)[C@@H](O)c2ccccc2)c2cnn(-c3ccccc3)c2n1"
  Sign: "="
  Ki [µM]: 0.31
